- experimental-system: CRF1R
- assay-details: cell-based or functional assay
Ends that are not written are not given here.
Definition: the class of an entry is the range in 1 (below 20%), 2 (20% to below 80%), 3 (80% or more) that contains its CRF1R Emax.

binder | category-label
ZGPPISIDLPFQLLRKMIEIEKQEKEKQQATTNRLLLARV (C-terminal amide) [SEQ ID NO 19] | 3
ZGPPISIDLPLILLRKMIEIEKQEKEKQQAANNRLLLDTI (C-terminal amide) [SEQ ID NO 194] | 3
DNPSLSIDLPLYLLRTLLELARTQSQRERAEQNAIIFASV-NH2 [SEQ ID NO 177] | 2
ZGPPISIDLPFQLLRKMIEIEKQEKEKQQATTNARLLATV (C-terminal amide) [SEQ ID NO 21] | 3
DNPSLSIDLPFFLLRTLLELARTQSQRERAEQNAIIFASV-NH2 [SEQ ID NO 184] | 2
ZGPPISIDLPISLLRKMIEIEKQEKEKQQAANNRLLLDTI (C-terminal amide) [SEQ ID NO 53] | 1
ZGPPISIDLPLQLLRKMIEIEKQEKEKQQAANNRLLLDTI (C-terminal amide) [SEQ ID NO 80] | 2
ZGPPISIDLPQHLLRKMIEIEKQEKEKQQAANNRLLLDTI (C-terminal amide) [SEQ ID NO 207] | 3

Q: Category lookup for the binder ZGPPISIDLPIALLRKMIEIEKQEKEKQQAANNRLLLDTI (C-terminal amide) [SEQ ID NO 47]
A: 1

Q: Each binder maps to one class by CRF1R Emax. Which class for IVLSLDVPIGLLQILLEQAKQRAAREQATTNARILARV-NH2 [SEQ ID NO 110] ?
A: 1

Q: Exam item: assign ZGPPISIDLPLHLLRKMIEIEKQEKEKQQAANNRLLLDTI (C-terminal amide) [SEQ ID NO 83] to the correct category.
A: 3

Q: # bin label for SQEPPISLDLPTHLLREVLEMTKADQLAQQAHSNRKLLDIA-NH2 [SEQ ID NO 99]
A: 1

Q: Which bin, given its CRF1R Emax, does SQEPPISLDLPFELLREVLEMTKADQLAQQAHSNRKLLDIA-NH2 [SEQ ID NO 97] occupy?
A: 1

Q: Tag the class for ZGPPISIDLPFQLLRKMIEIEKQEKEKQQAANNRLLLDTI (C-terminal amide) [SEQ ID NO 84]
A: 3

Q: Looking at ZGPPISIDLPVYLLRKMIEIEKQEKEKQQAANNRLLLDTI (C-terminal amide) [SEQ ID NO 39] , which class would you pick?
A: 2

Q: Class? Entry: ZGPPISIDLPLELLRKMIEIEKQEKEKQQATTNARILARV (C-terminal amide) [SEQ ID NO 143]
A: 3

Q: Which category does the recorded CRF1R Emax put ZGPPISIDLPFLLLRKMIEIEKQEKEKQQAANNRLLLDTI (C-terminal amide) [SEQ ID NO 191] in?
A: 2

Q: Which category fits this record: ZGPPISIDLPTFLLRKMIEIEKQEKEKQQAANNRLLLDTI (C-terminal amide) [SEQ ID NO 44]
A: 2

Q: Which CRF1R Emax category applies to ZGPPISIDLPTELLRKMIEIEKQEKEKQQAANNRLLLDTI (C-terminal amide) [SEQ ID NO 71] here?
A: 1

Q: Where would IVLSLDVPIGLLQILLEQARARAAREQATTQARILARV-NH2 [SEQ ID NO 9] land among the classes by reported CRF1R Emax?
A: 1

Q: // return the class label for ZGPPISIDLPFQLLRKMIEIEKQEKEKQQATTNRLLLDRV (C-terminal amide) [SEQ ID NO 18]
A: 3

// provenance: patent US20030148956A1
